These measurements were taken from PubChem BioAssay AID1963854.

Test system: 186277-243-T-J2-PDC complex spheroid viability
TEST METHOD NOTES: Anticancer human tumor 186277-243-T-J2-PDC patient-derived colon adenocarcinoma cell line growth inhibition [POLQ]; active = viability on the fitted dose curve at most 10% of control; inactive = the rest
TEST PARAMETERS: second compound 0.0316 µM; first compound 10 µM
Output constraint: value belongs to t for active, f for inactive

Example entries and their recorded answers appear below.
- COMPOUND: "COc1ccc([C@@H](O)c2cc(-c3ncnc4cc(N5CCOCC5)ccc34)c(F)cc2Cl)nn1 + Cc1cccc(N(C)C(=O)C2C(O)CCN2c2nc(C)cc(C(F)(F)F)c2C#N)c1"
  ANSWER LABEL: "f"
- COMPOUND: "O=C(c1cc(Cc2n[nH]c(=O)c3ccccc23)ccc1F)N1CCN(C(=O)C2CC2)CC1 + Cc1cccc(N(C)C(=O)C2C(O)CCN2c2nc(C)cc(C(F)(F)F)c2C#N)c1"
  ANSWER LABEL: "f"
- COMPOUND: "C#Cc1c(F)ccc2cc(O)cc(-c3ncc4c(N5CC6CCC(C5)N6)nc(OCC56CCCN5CC(F)C6)nc4c3F)c12 (configuration not stated) + Nc1ccc(C#CCN(C(=O)Cc2ncc(C(F)(F)F)cc2C(F)(F)F)c2ccc(F)cc2)nn1"
  ANSWER LABEL: "f"

Lookup: GET /call?item= CC1COCCN1c1cc(C2(O)CC3CCC(C2)O3)c2cnn(-c3ccn[nH]3)c2n1 (configuration not stated) + Cc1cccc(N(C)C(=O)C2C(O)CCN2c2nc(C)cc(C(F)(F)F)c2C#N)c1 returns the recorded outcome of this test.
Found: t

Lookup: GET /call?item= COc1cc2cc(C(=O)CCC(=O)O)sc2cc1OC + COC1C(OC(N)=O)C(O)C(Oc2ccc3c(O)c(NC(=O)c4ccc(O)c(CC=C(C)C)c4)c(=O)oc3c2C)OC1(C)C returns the recorded outcome of this test.
Found: f

Lookup: GET /call?item= COc1cccc2c1C(=O)c1c(O)c3c(c(O)c1C2=O)CC(O)(C(=O)CO)CC3OC1CC(N)C(O)C(C)O1 (configuration not stated) + COC1C(OC(N)=O)C(O)C(Oc2ccc3c(O)c(NC(=O)c4ccc(O)c(CC=C(C)C)c4)c(=O)oc3c2C)OC1(C)C returns the recorded outcome of this test.
Found: t

Lookup: GET /call?item= COc1cccc2c1C(=O)c1c(O)c3c(c(O)c1C2=O)CC(O)(C(=O)CO)CC3OC1CC(N)C(O)C(C)O1 (configuration not stated) + Nc1ccc(C#CCN(C(=O)Cc2ncc(C(F)(F)F)cc2C(F)(F)F)c2ccc(F)cc2)nn1 returns the recorded outcome of this test.
Found: t

====

Tested on: 186277-243-T-J2-PDC complex spheroid viability
TEST METHOD NOTES: Anticancer human tumor 186277-243-T-J2-PDC cell line growth inhibition [POLQ];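 also: spheroids exposed to compounds for seven days; 100% = DMSO vehicle control viability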
TEST PARAMETERS: second compound 3.16 µM; first compound 3.16 µM; hits give low values
ASSAY ENDPOINT: viability, T/C (%)
Respond numerically; units are % and should not be typed.

Lookup: Note down viability, T/C recorded for C=CC(=O)N1CCN(c2nc(=O)n(-c3c(C)ccnc3C(C)C)c3nc(-c4c(O)cccc4F)c(F)cc23)C(C)C1 (stereo not given) + COC1C(OC(N)=O)C(O)C(Oc2ccc3c(O)c(NC(=O)c4ccc(O)c(CC=C(C)C)c4)c(=O)oc3c2C)OC1(C)C
Found: 87.5

Lookup: Note down viability, T/C recorded for CC1COCCN1c1cc(-c2ccnn2C)c2ccnc(-c3ccn[nH]3)c2n1 (stereo not given) + COC1C(OC(N)=O)C(O)C(Oc2ccc3c(O)c(NC(=O)c4ccc(O)c(CC=C(C)C)c4)c(=O)oc3c2C)OC1(C)C
Found: 4.1

Lookup: Note down viability, T/C recorded for C#Cc1c(F)ccc2cc(O)cc(-c3ncc4c(N5CC6CCC(C5)N6)nc(OCC56CCCN5CC(F)C6)nc4c3F)c12 (stereo not given) + Cc1cccc(N(C)C(=O)C2C(O)CCN2c2nc(C)cc(C(F)(F)F)c2C#N)c1
Found: 6.21

Lookup: Note down viability, T/C recorded for CC1COCCN1c1cc(C2(S(C)(=N)=O)CC2)nc(-c2ccnc3[nH]ccc23)n1 (stereo not given) + COC1C(OC(N)=O)C(O)C(Oc2ccc3c(O)c(NC(=O)c4ccc(O)c(CC=C(C)C)c4)c(=O)oc3c2C)OC1(C)C
Found: 6.45

Lookup: Note down viability, T/C recorded for CCCS(=O)(=O)Nc1ccc(F)c(C(=O)c2c[nH]c3ncc(-c4ccc(Cl)cc4)cc23)c1F + Nc1ccc(C#CCN(C(=O)Cc2ncc(C(F)(F)F)cc2C(F)(F)F)c2ccc(F)cc2)nn1
Found: 88

====

Test system: 186277-243-T-J2-PDC complex spheroid viability
TEST METHOD NOTES: Anticancer human tumor 186277-243-T-J2-PDC cell line growth inhibition [POLQ]; active = viability on the fitted dose curve at most 10% of control; inactive = the rest;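 also: spheroids exposed to compounds for seven days; 100% = DMSO vehicle control viability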
TEST PARAMETERS: second compound 0.0316 µM; first compound 10 µM
Output constraint: value belongs to active, inactive

- COMPOUND: "CNCc1ccc(-c2[nH]c3cc(F)cc4c3c2CCNC4=O)cc1 + Cc1cccc(N(C)C(=O)C2C(O)CCN2c2nc(C)cc(C(F)(F)F)c2C#N)c1"
  ANSWER LABEL: "inactive"

Lookup: GET /call?item= CCc1cc2c(N3CCc4c(cc(Cn5ccnc5)cc4-c4cn(C)nc4C(F)(F)F)C3=O)cc(C)nc2c(OC)n1 + Nc1ccc(C#CCN(C(=O)Cc2ncc(C(F)(F)F)cc2C(F)(F)F)c2ccc(F)cc2)nn1 returns the recorded outcome of this test.
Found: inactive

Lookup: GET /call?item= C#Cc1c(F)ccc2cc(O)cc(-c3ncc4c(N5CC6CCC(C5)N6)nc(OCC56CCCN5CC(F)C6)nc4c3F)c12 (stereo unspecified) + Cc1cccc(N(C)C(=O)C2C(O)CCN2c2nc(C)cc(C(F)(F)F)c2C#N)c1 returns the recorded outcome of this test.
Found: active

Lookup: GET /call?item= CCc1cc2c(N3CCc4c(cc(Cn5ccnc5)cc4-c4cn(C)nc4C(F)(F)F)C3=O)cc(C)nc2c(OC)n1 + COC1C(OC(N)=O)C(O)C(Oc2ccc3c(O)c(NC(=O)c4ccc(O)c(CC=C(C)C)c4)c(=O)oc3c2C)OC1(C)C returns the recorded outcome of this test.
Found: inactive

Lookup: GET /call?item= CCc1cc2c(N3CCc4c(cc(Cn5ccnc5)cc4-c4cn(C)nc4C(F)(F)F)C3=O)ccnc2c(OC)n1 + Nc1ccc(C#CCN(C(=O)Cc2ncc(C(F)(F)F)cc2C(F)(F)F)c2ccc(F)cc2)nn1 returns the recorded outcome of this test.
Found: inactive

Lookup: GET /call?item= O=c1[nH]cc(F)c(=O)[nH]1 + COC1C(OC(N)=O)C(O)C(Oc2ccc3c(O)c(NC(=O)c4ccc(O)c(CC=C(C)C)c4)c(=O)oc3c2C)OC1(C)C returns the recorded outcome of this test.
Found: inactive

Lookup: GET /call?item= COc1ccc([C@@H](O)c2cc(-c3ncnc4cc(N5CCOCC5)ccc34)c(F)cc2Cl)nn1 + Nc1ccc(C#CCN(C(=O)Cc2ncc(C(F)(F)F)cc2C(F)(F)F)c2ccc(F)cc2)nn1 returns the recorded outcome of this test.
Found: inactive

====

molecules and their reported viability, T/C
Tested on: 186277-243-T-J2-PDC complex spheroid viability
TEST METHOD NOTES: Anticancer human tumor 186277-243-T-J2-PDC cell line growth inhibition [POLQ];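 also: spheroids exposed to compounds for seven days; 100% = DMSO vehicle control viability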
TEST PARAMETERS: second compound 0.0316 µM; first compound 10 µM; hits give low values
Method: Multicellular complex tumor spheroid response to Polymerase (POL) inhibitors (novobiocin, ART-558, RP6685) in combination with a variety of drugs and investigational agents in selected tumor cell lines The POL inhibitors (novobiocin, ART-558, and RP6685) were evaluated both individually and in combination with standard of care and investigational anticancer small molecules within a complex spheroid model of solid tumors. . […]

- MOLECULE: "CNCc1ccc(-c2[nH]c3cc(F)cc4c3c2CCNC4=O)cc1 + COC1C(OC(N)=O)C(O)C(Oc2ccc3c(O)c(NC(=O)c4ccc(O)c(CC=C(C)C)c4)c(=O)oc3c2C)OC1(C)C"
  VALUE MEASURED: "116%"
- MOLECULE: "CC1COCCN1c1cc(-c2ccnn2C)c2ccnc(-c3ccn[nH]3)c2n1 (stereo not drawn) + COC1C(OC(N)=O)C(O)C(Oc2ccc3c(O)c(NC(=O)c4ccc(O)c(CC=C(C)C)c4)c(=O)oc3c2C)OC1(C)C"
  VALUE MEASURED: "3.81%"

// below: viability, T/C requested for another molecule
Lookup: Note down viability, T/C recorded for COc1cc(C2c3cc4c(cc3C(OC3OC5COC(C)OC5C(O)C3O)C3COC(=O)C23)OCO4)cc(OC)c1O (stereo not drawn) + Nc1ccc(C#CCN(C(=O)Cc2ncc(C(F)(F)F)cc2C(F)(F)F)c2ccc(F)cc2)nn1
Found: 29.7%
